Target: Isocitrate dehydrogenase [NADP], mitochondrial [R172S] (Homo sapiens, UniProt P48735, R172S)
Sequence (P48735 40-452 R172S limits assumed): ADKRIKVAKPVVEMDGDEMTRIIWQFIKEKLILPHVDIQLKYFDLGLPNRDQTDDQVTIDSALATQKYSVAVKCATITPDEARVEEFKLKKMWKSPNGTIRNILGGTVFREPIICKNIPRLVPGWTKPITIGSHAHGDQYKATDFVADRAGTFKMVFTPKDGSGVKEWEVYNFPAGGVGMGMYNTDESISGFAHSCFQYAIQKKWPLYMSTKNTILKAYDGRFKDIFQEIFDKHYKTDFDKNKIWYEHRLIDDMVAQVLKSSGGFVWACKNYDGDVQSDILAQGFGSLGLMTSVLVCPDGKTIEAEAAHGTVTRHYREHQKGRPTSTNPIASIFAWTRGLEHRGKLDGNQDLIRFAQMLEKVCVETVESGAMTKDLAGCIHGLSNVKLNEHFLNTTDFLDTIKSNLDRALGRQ
Assay: RapidFire-MS/MS and NADPH Assays
Settings: 25 °C
assay.endpoint: IC50 (µM)
Return type: number; implicit unit µM.

Request: Write down IC50 measured for item C[C@H](O)c1cccc(NC(=O)c2nn(Cc3ccc(F)cc3)c3c2CN(C(=O)c2ccc[nH]2)C[C@H]3C)c1 [GSK321]
Result: 1.03

---

Molecular target: Isocitrate dehydrogenase [NADP] cytoplasmic [R132G] (Homo sapiens, UniProt O75874, R132G)
Sequence (O75874 2-414 R132G limits assumed): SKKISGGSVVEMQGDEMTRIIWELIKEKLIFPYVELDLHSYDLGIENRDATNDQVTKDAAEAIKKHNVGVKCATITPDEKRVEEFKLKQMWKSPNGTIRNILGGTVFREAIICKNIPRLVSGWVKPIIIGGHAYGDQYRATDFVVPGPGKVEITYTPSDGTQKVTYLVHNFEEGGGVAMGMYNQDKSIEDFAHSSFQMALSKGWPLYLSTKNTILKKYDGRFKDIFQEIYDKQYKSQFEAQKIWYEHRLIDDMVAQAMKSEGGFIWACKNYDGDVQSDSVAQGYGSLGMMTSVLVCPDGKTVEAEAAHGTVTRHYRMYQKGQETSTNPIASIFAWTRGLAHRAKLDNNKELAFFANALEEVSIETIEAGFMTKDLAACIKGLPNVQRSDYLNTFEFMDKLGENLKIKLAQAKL
Test: RapidFire-MS/MS and NADPH Assays
Conditions: 25 °C
assay.endpoint: pIC50
// pIC50 here means minus log10 of the molar concentration (mol/L)

Request: Write down pIC50 measured for item Cc1cccc(NC(=O)c2nn(Cc3c[nH]cn3)c3c2CN(C(=O)c2ccc[nH]2)CC3)c1 [GSK990]
Result: 4.63

---

Target: Isocitrate dehydrogenase [NADP] cytoplasmic [R132H] (Homo sapiens, UniProt O75874, R132H)
Sequence (O75874 2-414 R132H limits assumed): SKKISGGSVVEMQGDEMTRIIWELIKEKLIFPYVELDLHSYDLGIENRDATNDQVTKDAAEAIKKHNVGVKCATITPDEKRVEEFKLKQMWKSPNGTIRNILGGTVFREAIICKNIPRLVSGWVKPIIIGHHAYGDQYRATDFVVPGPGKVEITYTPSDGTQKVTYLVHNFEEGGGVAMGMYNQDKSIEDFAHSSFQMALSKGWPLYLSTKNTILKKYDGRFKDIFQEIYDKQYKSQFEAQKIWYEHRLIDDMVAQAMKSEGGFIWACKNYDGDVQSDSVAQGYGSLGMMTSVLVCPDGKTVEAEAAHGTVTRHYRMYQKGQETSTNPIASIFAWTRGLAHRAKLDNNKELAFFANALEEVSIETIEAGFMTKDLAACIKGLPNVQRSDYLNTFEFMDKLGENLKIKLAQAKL
Assay: RapidFire-MS/MS and NADPH Assays
Conditions: 25 °C
assay.endpoint: IC50
Mention the unit after the number when you answer.

Request: Specify IC50 for Cc1cccc(NC(=O)c2nn(Cc3c[nH]cn3)c3c2CN(C(=O)c2ccc[nH]2)CC3)c1 , system Isocitrate dehydrogenase [NADP] cytoplasmic [R132H] (Homo sapiens, UniProt O75874, R132H).
Result: 10.9 µM

---

Target: Isocitrate dehydrogenase [NADP], mitochondrial [R140Q] (Homo sapiens, UniProt P48735, R140Q)
Sequence (P48735 40-452 R140Q limits assumed): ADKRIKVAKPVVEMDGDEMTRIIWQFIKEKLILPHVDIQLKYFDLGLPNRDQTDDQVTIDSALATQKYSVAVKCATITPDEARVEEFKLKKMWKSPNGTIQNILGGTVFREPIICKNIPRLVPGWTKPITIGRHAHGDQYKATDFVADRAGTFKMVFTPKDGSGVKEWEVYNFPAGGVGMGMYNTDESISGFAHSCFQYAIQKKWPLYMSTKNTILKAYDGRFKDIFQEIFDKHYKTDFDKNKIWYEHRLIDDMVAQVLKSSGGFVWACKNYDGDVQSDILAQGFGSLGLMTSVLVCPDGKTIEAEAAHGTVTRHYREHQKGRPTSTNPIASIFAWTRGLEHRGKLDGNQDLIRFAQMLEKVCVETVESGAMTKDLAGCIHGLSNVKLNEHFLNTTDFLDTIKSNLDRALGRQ
Assay: RapidFire-MS/MS and NADPH Assays
Conditions: 25 °C
assay.endpoint: IC50

Cc1cccc(NC(=O)c2nn(Cc3c[nH]cn3)c3c2CN(C(=O)c2ccc[nH]2)CC3)c1 [GSK990] = > 100 µM

From here, focus on the item given below.
Request: Write down IC50 measured for item C[C@H](O)c1cccc(NC(=O)c2nn(Cc3ccc(F)cc3)c3c2CN(C(=O)c2ccc[nH]2)C[C@H]3C)c1 [GSK321]
Result: 1.36 µM

---

Molecular target: Isocitrate dehydrogenase [NADP] cytoplasmic [R132C] (Homo sapiens, UniProt O75874, R132C)
Sequence (O75874 2-414 R132C limits assumed): as the sequence (O75874 2-414 R132G limits assumed) above, with G131C counted along it
Assay: RapidFire-MS/MS and NADPH Assays
Details: 25 °C
assay.endpoint: IC50 (µM)
Return type: number; implicit unit µM.

Request: Write down IC50 measured for item Cc1cccc(NC(=O)c2nn(Cc3c[nH]cn3)c3c2CN(C(=O)c2ccc[nH]2)CC3)c1 [GSK990]
Result: 4.49
